system.tested: IKZF2 (Homo sapiens (Human), UniProt Q96SW2+Q9UKS7)
Sequence (Q9UKS7 whole entry): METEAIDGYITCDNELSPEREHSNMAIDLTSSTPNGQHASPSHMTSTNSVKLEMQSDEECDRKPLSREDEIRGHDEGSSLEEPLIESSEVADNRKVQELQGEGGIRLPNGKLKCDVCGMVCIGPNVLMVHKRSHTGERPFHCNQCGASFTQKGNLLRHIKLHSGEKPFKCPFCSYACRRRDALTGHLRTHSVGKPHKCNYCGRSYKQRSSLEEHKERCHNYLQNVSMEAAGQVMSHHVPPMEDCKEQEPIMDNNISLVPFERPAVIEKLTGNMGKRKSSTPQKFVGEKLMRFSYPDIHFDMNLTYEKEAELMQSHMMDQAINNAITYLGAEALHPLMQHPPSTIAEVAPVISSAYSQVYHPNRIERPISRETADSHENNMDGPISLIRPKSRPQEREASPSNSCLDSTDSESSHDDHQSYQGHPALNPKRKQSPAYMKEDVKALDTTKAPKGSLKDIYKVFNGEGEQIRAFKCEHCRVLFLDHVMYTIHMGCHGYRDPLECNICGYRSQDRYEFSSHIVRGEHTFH
Sequence (Q96SW2 whole entry): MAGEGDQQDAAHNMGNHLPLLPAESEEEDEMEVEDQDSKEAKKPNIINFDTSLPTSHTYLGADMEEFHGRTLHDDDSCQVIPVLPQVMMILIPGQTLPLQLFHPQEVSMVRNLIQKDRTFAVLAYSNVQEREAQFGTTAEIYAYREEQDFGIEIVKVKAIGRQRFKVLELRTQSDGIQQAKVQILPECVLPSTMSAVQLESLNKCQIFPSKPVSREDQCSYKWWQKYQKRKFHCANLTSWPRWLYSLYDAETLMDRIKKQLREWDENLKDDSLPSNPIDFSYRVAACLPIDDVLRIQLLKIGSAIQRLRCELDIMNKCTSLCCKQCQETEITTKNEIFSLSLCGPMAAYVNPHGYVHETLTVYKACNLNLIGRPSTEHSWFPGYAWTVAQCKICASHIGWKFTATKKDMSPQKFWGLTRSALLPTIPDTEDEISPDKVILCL
Sequence (Q16531 2-1140 partner): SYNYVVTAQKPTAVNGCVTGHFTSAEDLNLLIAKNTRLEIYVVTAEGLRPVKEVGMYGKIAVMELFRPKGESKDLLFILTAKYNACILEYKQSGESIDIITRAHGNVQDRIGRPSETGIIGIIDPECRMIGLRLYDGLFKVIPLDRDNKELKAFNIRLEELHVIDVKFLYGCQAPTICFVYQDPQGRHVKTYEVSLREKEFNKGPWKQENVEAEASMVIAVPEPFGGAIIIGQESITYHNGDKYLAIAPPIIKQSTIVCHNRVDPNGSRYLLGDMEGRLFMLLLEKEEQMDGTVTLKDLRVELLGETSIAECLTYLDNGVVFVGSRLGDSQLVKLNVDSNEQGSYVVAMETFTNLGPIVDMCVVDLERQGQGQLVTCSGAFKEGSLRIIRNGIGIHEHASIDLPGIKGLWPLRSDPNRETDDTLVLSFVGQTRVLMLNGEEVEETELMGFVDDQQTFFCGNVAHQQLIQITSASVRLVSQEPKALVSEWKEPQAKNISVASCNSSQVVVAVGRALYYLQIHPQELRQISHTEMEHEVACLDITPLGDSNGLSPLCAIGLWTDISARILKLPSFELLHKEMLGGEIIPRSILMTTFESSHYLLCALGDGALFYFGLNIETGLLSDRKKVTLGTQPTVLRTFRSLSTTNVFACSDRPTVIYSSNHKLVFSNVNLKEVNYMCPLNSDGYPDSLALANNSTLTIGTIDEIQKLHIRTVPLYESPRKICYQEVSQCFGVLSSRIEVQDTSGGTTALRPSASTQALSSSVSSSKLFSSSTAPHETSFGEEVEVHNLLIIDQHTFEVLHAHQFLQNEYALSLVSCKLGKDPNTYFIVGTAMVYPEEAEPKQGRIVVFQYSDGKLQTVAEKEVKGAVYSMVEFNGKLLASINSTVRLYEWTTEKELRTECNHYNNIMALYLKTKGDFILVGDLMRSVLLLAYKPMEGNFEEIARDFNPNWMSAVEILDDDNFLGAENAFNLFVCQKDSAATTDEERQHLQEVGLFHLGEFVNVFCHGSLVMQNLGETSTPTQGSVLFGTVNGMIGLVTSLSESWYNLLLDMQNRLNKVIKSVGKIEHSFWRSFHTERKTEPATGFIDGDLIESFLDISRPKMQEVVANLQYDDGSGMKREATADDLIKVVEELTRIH
experimental.protocol: In vitro IKZF2 HiBit Assay (HEK293T Flp-in-HiBiT cells)
Assay type: cell-based
assay.context: HEK-293T; HEK293T Flp-in-HiBiT cells, 6 hrs incubation; read-out: IKZF2 HiBit Dmax (%)
measure: Dmax

molecule	value.reported
COCCOc1ccnc2c(CN3CCCC3)cc(-c3ccc4c(c3)CN(C3CCC(=O)NC3=O)C4=O)nc12 (centres unmarked)	< 20%
O=C1CCC(N2Cc3cc(-c4cc(CN5CCCC5)c5[nH]ccc5n4)ccc3C2=O)C(=O)N1 (centres unmarked)	> 80%
CC(C)Cn1ccc2c(CN3CCCC3)cc(-c3ccc4c(c3)CN(C3CCC(=O)NC3=O)C4=O)nc21 (centres unmarked)	20 to 40%
CC(Oc1ccnc2c(CN3CCCC3)cc(-c3ccc4c(c3)CN(C3CCC(=O)NC3=O)C4=O)nc12)C(F)(F)F (centres unmarked)	60 to 80%
O=C1CCC(N2Cc3cc(-c4cc(CN5CCC(F)CC5)c5cc[nH]c5n4)ccc3C2=O)C(=O)N1 (centres unmarked)	> 80%
Cn1cnc(-n2ccc3c(CN4CCCC4)cc(-c4ccc5c(c4)CN([C@H]4CCC(=O)NC4=O)C5=O)nc32)c1	40 to 60%
O=C1CCC(N2Cc3cc(-c4cc(CN5CCCC5)c5ccn(C6CCC6)c5n4)ccc3C2=O)C(=O)N1 (centres unmarked)	> 80%
O=C1CC[C@H](N2Cc3cc(-c4cc(CN5CCCC5)c5ccn(-c6ncco6)c5n4)ccc3C2=O)C(=O)N1	60 to 80%
O=C1CCC(N2Cc3cc(-c4cc(CN5CCCC5)c5nc[nH]c5n4)ccc3C2=O)C(=O)N1 (centres unmarked)	< 20%
Cn1ccc2c(CN3CCN(S(C)(=O)=O)CC3)cc(-c3ccc4c(c3)CN(C3CCC(=O)NC3=O)C4=O)nc21 (centres unmarked)	40 to 60%
Cn1ccc2c(O[C@@H]3CCNC3)cc(-c3ccc4c(c3)CN([C@H]3CCC(=O)NC3=O)C4=O)nc21	40 to 60%
O=C1CCC(N2Cc3cc(-c4cc(CN5CCCC5)c5c(ccn5CCO)n4)ccc3C2=O)C(=O)N1 (centres unmarked)	60 to 80%
CC(C)Nc1n[nH]c2c(CN3CCCC3)cc(-c3ccc4c(c3)CN(C3(C)CCC(=O)NC3=O)C4=O)nc12 (centres unmarked)	20 to 40%
O=C1CCC(N2Cc3cc(-c4cc(CN5CCCC5CF)c5ccn(C6COC6)c5n4)ccc3C2=O)C(=O)N1 (centres unmarked)	> 80%
Cn1ccc2c(CN3CCC4(CCCC4)CC3)cc(-c3ccc4c(c3)CN(C3CCC(=O)NC3=O)C4=O)nc21 (centres unmarked)	> 80%
Cn1ccc2c(CN3CCN4CCCC4C3)cc(-c3ccc4c(c3)CN(C3CCC(=O)NC3=O)C4=O)nc21 (centres unmarked)	60 to 80%
O=C1CCC(N2Cc3cc(-c4cc(CN5CCC5)c5cc[nH]c5n4)ccc3C2=O)C(=O)N1 (centres unmarked)	> 80%
O=C1CCC(N2Cc3cc(-c4cc(CN5CCC(O)C5)c5ccn(C6COC6)c5n4)ccc3C2=O)C(=O)N1 (centres unmarked)	60 to 80%
O=C1CCC(N2Cc3cc(-c4cc(CN5CCCC5)c5nccc(OC6CCC6)c5n4)ccc3C2=O)C(=O)N1 (centres unmarked)	60 to 80%
O=C1CCC(N2Cc3cc(-c4cc(CN5CCCC5)c5ccn(C6COC6)c5n4)c(Cl)cc3C2=O)C(=O)N1 (centres unmarked)	< 20%
CN(C)C(=O)C1CCN(Cc2cc(-c3ccc4c(c3)CN(C3CCC(=O)NC3=O)C4=O)nc3c2ccn3C)CC1 (centres unmarked)	> 80%
Cn1ccc2c(N3CCCC3)cc(-c3ccc4c(c3)CN(C3CCC(=O)NC3=O)C4=O)nc21 (centres unmarked)	20 to 40%
Nc1n[nH]c2c(CN3CCCC3)cc(-c3ccc4c(c3)CN(C3CCC(=O)NC3=O)C4=O)nc12 (centres unmarked)	> 80%
CN(C)c1ccnc2c(CN3CCCC3)cc(-c3ccc4c(c3)CN(C3CCC(=O)NC3=O)C4=O)nc12 (centres unmarked)	60 to 80%
O=C1CCC(N2Cc3cc(-c4cc(CN5CCCC5)c5[nH]nc(NC6COC6)c5n4)ccc3C2=O)C(=O)N1 (centres unmarked)	< 20%
O=C1CCC(N2Cc3cc(-c4cc(CN5CCC(O)CC5)c5ccn(C6CC6)c5n4)ccc3C2=O)C(=O)N1 (centres unmarked)	60 to 80%
COC1CCN(Cc2cc(-c3ccc4c(c3F)CN(C3CCC(=O)NC3=O)C4=O)nc3c(NC(C)C)n[nH]c23)CC1 (centres unmarked)	> 80%
CCn1ccc2c(CN3CCCC3)cc(-c3ccc4c(c3)CN(C3CCC(=O)NC3=O)C4=O)nc21 (centres unmarked)	> 80%
CC(C)Nc1n[nH]c2c(CN3CCCC3)cc(-c3ccc4c(c3)C(C)N(C3CCC(=O)NC3=O)C4=O)nc12 (centres unmarked)	> 80%
